# Test system: MDA-MB-435 melanoma
# protocol-details: NCI-60 one-dose screen, 48 h (100 = growth as untreated, 0 = no growth, -100 = all killed)
# experimental-setup: 10 µM unless noted
About 83,000 compounds went through this panel and 20% of them were active in at least one assay; those are over-represented in the sample as a whole.
reported-property: growth (%)

{"smiles-notation": "Cn1cc(-c2nn3cc(-c4cccnc4)nc3s2)c2cc(F)ccc21", "assay-value": 29.7}
{"smiles-notation": "N#Cc1c(NC(=O)c2ccc(F)c(Cl)c2)sc2c1CCC(=O)C2", "assay-value": -39.5}
{"smiles-notation": "Cc1[nH]nc2ccc(-c3nc4cnc(N5CCN(C)CC5)cn4c3Nc3ccc(F)cc3Br)cc12", "assay-value": 30.7}
{"smiles-notation": "Cc1ccc(NC(=O)c2cccc(CN3CCN(C)CC3)c2)cc1Oc1ccc(-c2[nH]nc3ncnc(N)c23)cc1", "assay-value": 56.3}
{"smiles-notation": "CC(=O)Nc1ccc(C)c(Nc2cc(-c3ccc(-n4cccn4)cc3)[nH]n2)c1", "assay-value": -26.4}
{"smiles-notation": "COc1cc2c3c(n(CCCN4CCC[C@H]4C(N)=O)c(=O)c2cc1OC)-c1cc2c(cc1C3=O)OCO2", "assay-value": 31.8}
{"smiles-notation": "O=C1CSC(=O)N1Cc1cc2ccccc2nc1Cl", "assay-value": 99.3}
{"smiles-notation": "COc1ccc2c(C3=C(c4cn(C)c5ccccc45)C(=O)NC3=O)coc2c1", "assay-value": 6.58}
{"smiles-notation": "N/C(=N\\c1nc2c(Cl)cccc2s1)C(Cl)(Cl)Cl", "assay-value": 89.1}
{"smiles-notation": "C=C1C(=O)O[C@@H]2C[C@@H](C)[C@H](OC)CC(=O)[C@](C)(OC(C)=O)C[C@H](OC(=O)/C(C)=C\\C)[C@@H]12", "assay-value": 82.8}
{"smiles-notation": "Oc1ccc(CSc2nnc(-c3ccccc3)o2)c2cccnc12", "assay-value": 21.8}
{"smiles-notation": "O=C(Nc1cc(Cl)cc(Cl)c1)Nc1ccc2oc(=O)ccc2c1", "assay-value": 13.9}
{"smiles-notation": "COc1ccc2c(ccn2C(=O)N2c3ccccc3Sc3ccccc32)c1", "assay-value": -18.9}
{"smiles-notation": "COc1ccc(-c2nc3cc(Cl)c(Cl)cc3n2CC(=O)N=Nc2c(O)[nH]c3ccc(Cl)cc23)cc1", "assay-value": 16.9}
{"smiles-notation": "COc1ccc([C@@H]2[C@@H](O)C(=O)N2c2cc(OC)c(OC)c(OC)c2)cc1Cl", "assay-value": -8.49}
{"smiles-notation": "Cc1nn(-c2ccc(Br)cc2)c2nc(CCl)[nH]c(=O)c12", "assay-value": 103}
{"smiles-notation": "N#Cc1ccc(S(=O)(=O)Nc2ccc(-c3cnc(N)[nH]3)cc2)cc1", "assay-value": 108}
{"smiles-notation": "Oc1ccc(CSc2nnc(-c3ccc(Br)cc3)n2-c2ccccc2)c2cccnc12", "assay-value": 19.5}

----------
Each record here notes measured growth.
# System: HOP-62 NSCLC
# protocol-details: NCI-60 one-dose screen, 48 h (100 = growth as untreated, 0 = no growth, -100 = all killed)
# experimental-setup: 10 µM unless noted
# Description: Growth inhibition of the HOP-62 human Non-Small Cell Lung tumor cell line is measured as a screen for anti-cancer activity. Cells are grown in 96 well plates and exposed to the test compound for 48 hours. Compounds are tested at a single concentration, which is 10^-5 M for most compounds. The reported endpoint is percent growth (GI% or GIPRCNT), where numbers from 0 - 100% represent growth inhibition, and numbers from -100% - 0 represent cell death. […]
The panel holds about 83,000 compounds, 20% with a hit somewhere; the sample as a whole holds those more often.

{"compound": "COc1ccc(-c2cc(-c3cccc4ccccc34)n3c(n2)nc2ccccc23)cc1", "growth (%)": 26}
{"compound": "CCCCOc1ccc(S(=O)(=O)N2CCN(c3nccc(N4CCOCC4)n3)CC2)cc1", "growth (%)": 88.9}
{"compound": "NCCN1CCN(c2nc(-c3ccccc3)nc3nc(-c4ccccc4)oc23)CC1", "growth (%)": 0.341}
{"compound": "CC(C)=CCC[C@](C)(O)[C@H]1CC[C@]2(C)[C@@H]1CC[C@@H]1[C@@]3(C)CCC(NC(=O)c4ccccc4C(=O)O)C(C)(C)[C@@H]3CC[C@]12C (some centres undefined)", "growth (%)": 104}
